Here's what we have: Kd numbers for ATP-dependent RNA helicase DDX42 (Homo sapiens, UniProt Q86XP3).
The source made the active and inactive calls.

Q. Consider the compound shown here: CNC(=O)c1ccccc1Sc1ccc2c(/C=C/c3ccccn3)n[nH]c2c1 What is its recorded Kd?
A. > 30 µM (inactive)

Q. Ok, now C[C@@H](Oc1cc(C(=O)Nc2ccc(C(=O)N3CCN(C)CC3)cc2)nnc1N)c1c(Cl)ccc(F)c1Cl
A. > 30 µM (inactive)

Q. Ok, now Cn1ncc(Cl)c1-c1cc(C(=O)N[C@H](CN)Cc2ccc(F)c(F)c2)oc1Cl
A. > 30 µM (inactive)

Q. Ok, now C=CC(=O)N1CCC[C@H](n2c(=O)n(-c3ccc(Oc4ccccc4)cc3)c3c(N)ncnc32)C1
A. > 30 µM (inactive)

----------
# target_or_system: UniProt:P49841
# Sequence (P49841 whole entry): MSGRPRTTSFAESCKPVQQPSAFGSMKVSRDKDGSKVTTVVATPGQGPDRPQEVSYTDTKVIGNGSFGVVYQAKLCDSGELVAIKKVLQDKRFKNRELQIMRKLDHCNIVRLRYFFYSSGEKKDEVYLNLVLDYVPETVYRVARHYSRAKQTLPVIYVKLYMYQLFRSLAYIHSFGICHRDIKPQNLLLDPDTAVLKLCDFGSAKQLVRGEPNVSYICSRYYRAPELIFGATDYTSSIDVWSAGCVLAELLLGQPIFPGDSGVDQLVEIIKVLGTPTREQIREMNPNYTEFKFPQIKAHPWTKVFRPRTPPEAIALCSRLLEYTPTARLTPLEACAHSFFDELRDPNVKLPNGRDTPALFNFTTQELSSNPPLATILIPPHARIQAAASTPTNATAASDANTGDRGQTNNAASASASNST
Calls of active or inactive are those of the source.
Pick one: y (active), n (inactive)

Q. Tell me the recorded outcome of this test for Cc1cc(Nc2ncc(Cl)c(Nc3ccccc3S(=O)(=O)C(C)C)n2)c(OC(C)C)cc1C1CCNCC1 .
A. n

Q. Ok, now COc1cc([C@@H]2c3cc4c(cc3[C@H](O)[C@H]3COC(=O)[C@@H]23)OCO4)cc(OC)c1OC
A. n

Q. Ok, now CN1C/C=C/CCOc2cccc(c2)-c2ccnc(n2)Nc2cccc(c2)C1
A. y

Q. Ok, now CNC(=O)c1cc(Oc2ccc(NC(=O)Nc3cc(C(C)(C)C)nn3-c3ccc4ncccc4c3)c(F)c2)ccn1
A. n

Q. Ok, now CN1CCN(CCOc2cc(OC3CCOCC3)c3c(Nc4c(Cl)ccc5c4OCO5)ncnc3c2)CC1
A. n

Q. Ok, now Cn1ncc(Cl)c1-c1cc(C(=O)N[C@H](CN)Cc2ccc(F)c(F)c2)oc1Cl
A. n

Q. Ok, now Nc1ncnc2c1c(-c1cccc(OCc3ccccc3)c1)cn2[C@H]1C[C@@H](CN2CCC2)C1
A. n

Q. Ok, now C[C@H]1CNCCCN1S(=O)(=O)c1cccc2cncc(F)c12
A. n

----------
# target_or_system: Cyclin-dependent kinase 3 (Homo sapiens); also: in the data inactive means no Kd found up to 30 µM
# Sequence (Q00526 whole entry): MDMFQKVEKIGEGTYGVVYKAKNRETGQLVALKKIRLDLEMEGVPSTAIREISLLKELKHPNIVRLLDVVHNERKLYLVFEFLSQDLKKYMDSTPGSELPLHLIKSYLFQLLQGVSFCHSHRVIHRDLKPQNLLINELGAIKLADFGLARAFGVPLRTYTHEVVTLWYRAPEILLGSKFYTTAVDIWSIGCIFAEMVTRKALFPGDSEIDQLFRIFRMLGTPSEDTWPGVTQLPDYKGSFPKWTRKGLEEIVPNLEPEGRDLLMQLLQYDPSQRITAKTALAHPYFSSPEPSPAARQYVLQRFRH
Where a name gives a salt, the structure may show the parent alone. The source made the active and inactive calls.
Pick one: y for active, n for inactive

Q. Tell me the recorded outcome of this test for Cc1nc(Nc2n[nH]c3c2CN(C(=O)N[C@H](CN(C)C)c2ccccc2)C3(C)C)c2sccc2n1 [PF-03758309] .
A. y

Q. Ok, now C=CC(=O)Nc1cc2c(Nc3ccc(F)c(Cl)c3)ncnc2cc1C#CC(C)(C)N1CCN(C)CC1 [AV-412 FREE BASE]
A. n

Q. Ok, now Cc1cc(Nc2ncc(Cl)c(Nc3ccccc3S(=O)(=O)C(C)C)n2)c(OC(C)C)cc1C1CCNCC1 [CERITINIB]
A. n

Q. Ok, now C[C@@H](N)c1ccc(C(=O)Nc2ccnc3[nH]ccc23)cc1 [Y-39983]
A. n

Q. Ok, now C[C@@H](Oc1cc(C(=O)Nc2ccc(C(=O)N3CCN(C)CC3)cc2)nnc1N)c1c(Cl)ccc(F)c1Cl
A. n

Q. Ok, now CC(=O)NCC(=O)N1[C@@H]2CC[C@H]1c1ccc(Nc3ncc(C(F)(F)F)c(NC4CCC4)n3)cc12 [PF-03814735]
A. y

Q. Ok, now CCNC(=O)C#Cc1ccc2c(c1)NC(=O)/C2=C(\Nc1ccc(CN(C)C)cc1)c1ccccc1
A. y

Q. Ok, now C#Cc1cccc(Nc2ncnc3cc(OC)c(OCCCCCCC(=O)NO)cc23)c1 [CUDC-101]
A. n

Q. Ok, now CO[C@H]1C[C@@H]2CC[C@@H](C)[C@@](O)(O2)C(=O)C(=O)N2CCCC[C@H]2C(=O)O[C@H]([C@H](C)C[C@@H]2CC[C@@H](OC(=O)C(C)(CO)CO)[C@H](OC)C2)CC(=O)[C@H](C)/C=C(\C)[C@@H](O)[C@@H](OC)C(=O)[C@H](C)C[C@H](C)/C=C/C=C/C=C/1C [TEMSIROLIMUS]
A. n

Q. Ok, now COc1ccc(S(=O)(=O)N(C(C)=O)c2ccccc2/C=C/c2cc[n+]([O-])cc2)cc1 [HMN-214]
A. n

Q. Ok, now Cc1csc(-c2nnc(Nc3ccc(Oc4ncccc4-c4ccnc(N)n4)cc3)c3ccccc23)c1 [AMG-900]
A. n

Q. Ok, now O=C(Nc1c[nH]nc1-c1nc2cc(CN3CCOCC3)ccc2[nH]1)NC1CC1 [AT-9283]
A. n

Q. Ok, now O=C(Nc1nc2cccc(-c3ccc(CN4CCS(=O)(=O)CC4)cc3)n2n1)C1CC1 [FILGOTINIB]
A. n

Q. Ok, now O=C(Nc1cc(C(F)(F)F)cc(C(F)(F)F)c1)c1cc(Cl)ccc1O [IMD-0354]
A. n

Q. Ok, now COCc1c(-c2ccc(NC(=O)Nc3cc(C(F)(F)F)ccc3F)c(F)c2)c2c(N)ncnn2c1CN1CCOCC1
A. n

Q. Ok, now CNC(=O)c1cc(Oc2ccc(NC(=O)Nc3cc(C(C)(C)C)nn3-c3ccc4ncccc4c3)c(F)c2)ccn1 [REBASTINIB]
A. y

Q. Ok, now C=CC(=O)N1CCC[C@H](n2c(=O)n(-c3ccc(Oc4ccccc4)cc3)c3c(N)ncnc32)C1
A. n

Q. Ok, now NC(=O)c1c(OCc2c(F)cc(Br)cc2F)nsc1NC(=O)NCCCCN1CCCC1 [OSI-632]
A. n

Q. Ok, now CCS(=O)(=O)N1CCN(c2ccc(Nc3ncc(C(N)=O)c(NC4CC4)n3)cc2)CC1 [Cerdulatinib Hydrochloride]
A. n

Q. Ok, now COc1cc2ncnc(Oc3cccc(NC(=O)Nc4cc(C(C)(C)C(F)(F)F)on4)c3)c2cc1OC [CEP-32496]
A. n

Q. Ok, now O=c1[nH]ccc2cc(OC3CCNCC3)ccc12 [SAR-407899 FREE BASE]
A. n

Q. Ok, now CO[C@H]1C[C@@H]2CC[C@@H](C)[C@@](O)(O2)C(=O)C(=O)N2CCCC[C@H]2C(=O)O[C@H]([C@H](C)C[C@@H]2CC[C@@H](OP(C)(C)=O)[C@H](OC)C2)CC(=O)[C@H](C)/C=C(\C)[C@@H](O)[C@@H](OC)C(=O)[C@H](C)C[C@H](C)/C=C/C=C/C=C/1C [RIDAFOROLIMUS]
A. n

Q. Ok, now CCn1cc(-c2ccnc3[nH]c(-c4cccc(CN(C)C)c4)cc23)c(-c2ccc(NC(=O)N(C)C)cc2)n1 [GSK-1070916]
A. n

Q. Ok, now CNC(=O)c1nn(C)c2c1C(C)(C)Cc1cnc(Nc3ccc(N4CCN(C)CC4)cc3)nc1-2 [MILCICLIB]
A. n

Q. Ok, now COc1cc(Nc2ncc3c(n2)-c2ccc(Cl)cc2C(c2c(F)cccc2OC)=NC3)ccc1C(=O)O [ALISERTIB]
A. n

Q. Ok, now NC1(c2ccc(-c3nc4ccn5c(=O)[nH]nc5c4cc3-c3ccccc3)cc2)CCC1 [MK-2206]
A. n

Q. Ok, now NC(=O)Nc1cc(-c2cccc(F)c2)sc1C(=O)N[C@H]1CCCNC1 [AZD-7762]
A. y

Q. Ok, now Cc1nc(NC(=O)N2CCC[C@H]2C(N)=O)sc1-c1ccnc(C(C)(C)C(F)(F)F)c1 [ALPELISIB]
A. n

Q. Ok, now CN(C[C@@H]1COCCO1)S(=O)(=O)Nc1ccc2ccc3ncc(-c4cnn(C)c4)cc3c(=O)c2c1 [MK-2461]
A. n

----------
# target_or_system: UniProtKB P43405
The source made the active and inactive calls.
Pick one: class 1 (active), class 0 (inactive)

Q. Tell me the recorded outcome of this test for CO[C@H]1C[C@@H]2CC[C@@H](C)[C@@](O)(O2)C(=O)C(=O)N2CCCC[C@H]2C(=O)O[C@H]([C@H](C)C[C@@H]2CC[C@@H](OP(C)(C)=O)[C@H](OC)C2)CC(=O)[C@H](C)/C=C(\C)[C@@H](O)[C@@H](OC)C(=O)[C@H](C)C[C@H](C)/C=C/C=C/C=C/1C .
A. class 0

Q. Ok, now C[C@@H](Oc1cc(C(=O)Nc2ccc(C(=O)N3CCN(C)CC3)cc2)nnc1N)c1c(Cl)ccc(F)c1Cl
A. class 0

Q. Ok, now CCS(=O)(=O)c1cccc(-c2cc(C(=O)NC3CCN(C)CC3)c(C)c3[nH]c4ncc(C)cc4c23)c1
A. class 1

Q. Ok, now O=C(Nc1cc(C(F)(F)F)cc(C(F)(F)F)c1)c1cc(Cl)ccc1O
A. class 0

Q. Ok, now CN(C[C@@H]1COCCO1)S(=O)(=O)Nc1ccc2ccc3ncc(-c4cnn(C)c4)cc3c(=O)c2c1
A. class 0

Q. Ok, now NC(=O)Nc1cc(-c2cccc(F)c2)sc1C(=O)N[C@H]1CCCNC1
A. class 1

----------
Here's what we have: Kd numbers for Mitogen-activated protein kinase kinase kinase kinase 1 (Homo sapiens).
Active and inactive are the calls of the source.

Q. Consider the compound shown here: CN1CCN(CCOc2cc(OC3CCOCC3)c3c(Nc4c(Cl)ccc5c4OCO5)ncnc3c2)CC1 What is its recorded Kd?
A. > 30 µM (inactive)

Q. Ok, now COc1cc2ncnc(Oc3cccc(NC(=O)Nc4cc(C(C)(C)C(F)(F)F)on4)c3)c2cc1OC
A. > 30 µM (inactive)

Q. Ok, now Cc1nc(Nc2n[nH]c3c2CN(C(=O)N[C@H](CN(C)C)c2ccccc2)C3(C)C)c2sccc2n1
A. 2.3 µM (active)

Q. Ok, now COCc1c(-c2ccc(NC(=O)Nc3cc(C(F)(F)F)ccc3F)c(F)c2)c2c(N)ncnn2c1CN1CCOCC1
A. > 30 µM (inactive)

Q. Ok, now O=C(Nc1nc2cccc(-c3ccc(CN4CCS(=O)(=O)CC4)cc3)n2n1)C1CC1
A. > 30 µM (inactive)

Q. Ok, now Cc1[nH]c(/C=C2\C(=O)Nc3ccccc32)c(C)c1CCC(=O)O [ORANTINIB]
A. 2.02 µM (active)

Q. Ok, now C[C@@H](N)c1ccc(C(=O)Nc2ccnc3[nH]ccc23)cc1
A. > 30 µM (inactive)

Q. Ok, now Cn1cnc2c(F)c(Nc3ccc(Br)cc3F)c(C(=O)NOCCO)cc21
A. > 30 µM (inactive)
